Where these numbers come from: the supplement of paper PMC9112550

# System: Escherichia coli TOP10;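 also: peptides expressed intracellularly from a pBAD plasmid library in pooled LB shake-flask culture, induced with 0.3% L-arabinose, DNA abundance read by NGS, three biological replicates, DESeq2 with apeglm shrinkage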
# EXPERIMENTAL DETAILS: shrunken log2 fold change of peptide-encoding DNA abundance (4.5 h post-induction vs induction); higher = less antimicrobial activity (less host growth inhibition)
# TEST SETTINGS: time post-induction: 4.5 h; library: site-saturation at positions 5, 18, 19, 20
Returns one of T or F; T when shrunken log2 fold change is >= -0.06.

A selection of reference data follows.
1. RRIRIRPPRLPRPRPRPKMCPRP	T
2. RRIRYRPPRLPRPRPRPVHEPRP	T
3. RRIRTRPPRLPRPRPRPLYYPRP	F
4. RRIRIRPPRLPRPRPRPHGCPRP	F
5. RRIRHRPPRLPRPRPRPIKSPRP	T

Could you tell me if the measured shrunken log2 fold change of "RRIRIRPPRLPRPRPRPEINPRP" reaches -0.06 or more? F

Could you tell me if the measured shrunken log2 fold change of "RRIRRRPPRLPRPRPRPWFDPRP" reaches -0.06 or more? F

Could you tell me if the measured shrunken log2 fold change of "RRIRARPPRLPRPRPRPVNYPRP" reaches -0.06 or more? F
